- Tested on: BT-549
- experiment: NCI tumour cell line growth inhibition, 48 h
Activity calls are given as the source filed them. No stated cut-off is given here; in the data, active = GI50 up to about 1.1 µM and inactive = higher.
Each entry below carries its recorded GI50.

So, CC(C)(C)OC(=O)C1=C(N)N(Cc2ccccc2)C2(C)C=CC(=O)C=C12 (stereo unspecified) ? Its GI50 was 1.95 µM (inactive)

Kindly consider the entry below.
Please fill in: GI50 reported for CS(=O)(=O)CS(=O)(=O)OCCCl = 99.5 µM (inactive)

====

- Tested on: SR
- experiment: NCI tumour cell line growth inhibition, 48 h
Activity calls are given as the source filed them. Cut-off read from the data, not from the text of the source: active = GI50 up to about 1.1 µM and inactive = higher.
# maps each entry to its GI50

Previously resolved entries follow.
Item O=C1c2ccccc2-c2nnc3c(c21)-c1ccccc1C3 was tested on SR; the reported GI50 is 12 µM (inactive)

Given the molecule C=C1CC(Cn2cc(Br)c(=O)[nH]c2=O)(c2ccc(Br)cc2)OC1=O (stereo not given) and test system SR, the measured GI50 is 1.52 µM (inactive)

Tested on SR, the item O=C(CCNC(=O)OCc1ccccc1)OCCCNC(=O)OCc1ccccc1 showed GI50 equal to > 100 µM (inactive)

# GI50 measured on SR for item O=C1C=C(Nc2cccnc2)c2ccccc2C1=O = 6.55 µM (inactive)

// below: GI50 requested for another molecule
Reported SR GI50 for item C/C1=C\CC[C@@]2(C)O[C@@H]2C[C@@H]2[C@H](C/C(C)=C/CC1)OC(=O)C21CC1 was 12.7 µM (inactive)

====

Below: a set of entries, each annotated with reported GI50.
- System: MOLT-4
- experiment: NCI tumour cell line growth inhibition, 48 h
The source made the active and inactive calls. Rule as the data show it: active = GI50 up to about 1.1 µM and inactive = higher.

Recorded results for 4 compounds are shown here.
Entry O=C1NC(=S)N(c2ccccc2)C1=O , GI50 reported as > 100 µM (inactive)

Reported GI50 ( CC1C=C(OC(=O)c2ccccc2)C(=O)C(n2cc(F)c(=O)[nH]c2=O)O1 (stereo not given) ) = 51.5 µM (inactive)

GI50 recorded for this compound, C/C(=N\NC(=S)NCCNC(=S)N/N=C(\C)c1ccccn1)c1ccccn1 , is 2.15 µM (inactive)

Entry under test: Oc1ccc2ccccc2c1NCn1nc(CCCCCCCCc2nn(CNc3c(O)ccc4ccccc34)c(=S)o2)oc1=S . Its GI50 was > 100 µM (inactive)

Now examine the next entry.
Measured GI50, Cc1occ2c1C(=O)CC1C2[C@@H](O)CC2C(C)(C)CCC[C@]12C (stereo not given in full) : 40 µM (inactive)

====

- System: SW-620
- experiment: NCI tumour cell line growth inhibition, 48 h
Active and inactive are the calls of the source. No stated cut-off is given here; in the data, active = GI50 up to about 1.1 µM and inactive = higher. Where a SMILES comes first, the peptide text is derived from it. The star is where a group is joined. Cbz = O=C(OCc1ccccc1)*
Parameter call: string, one of active, inactive

Tell me the recorded outcome of this test for O=C(Nc1cccc2cnccc12)c1cc2c(cc1Cl)Sc1nccn1S2(=O)=O .
inactive

Call for entry CC(C)c1ccccc1NC(=O)CCc1n[nH]c(=S)o1 :
inactive

Identify the outcome logged in this assay for the compound shown: CC(C)=CCC[C@@H](C)c1c2nc3ccccc3[nH]c-2c(C)c(=O)c1O
inactive

State the result this test recorded for CC1CN(c2cc3c(cc2F)c(=O)c(C(=O)O)cn3-c2ccc(N3CCN(C)CC3)cn2)CC(C)N1 (stereo not given) .
inactive

Please share the test call associated with COC(=O)C(CC(C)C)NC(=O)C(CCCNC(=N)N)NC(=O)OCc1ccccc1 (stereo not drawn) (Cbz-Arg-Leu-OMe; configuration not given here) .
inactive

// return assay outcome for O=c1c2cccnc2ncn1CCCN1CCOCC1
inactive

Just curious, what result did CCNC(=O)O/N=C1\CCC2[C@@H]3CC=C4C[C@@H](OC5CCCCO5)CC[C@]4(C)C3CC[C@]12C (stereo not given in full) get here?
inactive
